test: sensitizers of A549 cells to miR-34 induction, primary screen, imaging, A549 dox-inducible miR-34, nuclei and caspase counts (AID 1347080); conditions: A549 miR-34 inducible, Hoechst nuclei count, 48 h; measured here: relative caspase fold change +Dox/-Dox
Give fold change for every item shown.

The compound listed as `CC(=O)NCc1c(I)c(NC(C)=O)c(I)c(C(=O)O)c1I` has a reported fold change of 1.88

For record `COc1ccc(-c2coc3cc(O)ccc3c2=O)cc1` the listed fold change is 0.624

Lookup result for `O=P(O)(O)C(O)(Cn1ccnc1)P(=O)(O)O` ; measured fold change: 1.6

The recorded fold change for entry `OCC(CO)N[C@H]1C[C@](O)(CO)[C@@H](O)[C@H](O)[C@H]1O` equals 1.87

CCN(CC)CCNC(C(=O)OCCC(C)C)c1ccccc1 (centres undefined) has a reported fold change of 0.754

# fold change of `CCC[C@@H]1C[C@@H](C(=O)N[C@@H]([C@H]2O[C@H](SC)[C@H](O)[C@@H](O)[C@H]2O)[C@@H](C)O)N(C)C1` = 1.35

So, `Nc1c(CC(=O)O)cccc1C(=O)c1ccc(Br)cc1` ? Its fold change was 1.05

Sure, the documented fold change for `C[C@H]1O[C@H](O[C@H]2[C@H](O)[C@@H](O)[C@@H](O[C@H]3[C@H](O)[C@@H](O)[C@H](O)O[C@@H]3CO)O[C@@H]2CO)[C@H](O)[C@@H](O)[C@@H]1N[C@H]1C=C(CO)[C@@H](O)[C@H](O)[C@H]1O` is 1.97

The reported value for `O=C(O)Cc1ccc(-c2ccccc2)cc1` in terms of fold change is 1.39

Note to self: fold change recorded for `CC(=O)N[C@@H](CC(=O)O)C(=O)O` was 1.57

`[O-][n+]1cccc(CO)c1` yielded fold change of 0.917

fold change reading for `CC(C)COC(=O)c1ccc(N)cc1` : 0.986

The compound identified as `CC(=O)NCCc1c[nH]c2ccc(O)cc12` registered its fold change at 1.87

The measured fold change associated with `NC(=O)NS(=O)(=O)c1ccc(N)cc1` reads 0.945

response.value for `COC(=O)[C@@H](N)Cc1ccc(O)c(O)c1` (field: fold change) = 1.36

For `CCOc1ccc2c(c1)C(C)=CC(C)(C)N2` the compound record lists fold change as 1.09

Memo: `COc1ccc(-c2cc(=O)c3c(O)c(OC)c(OC)cc3o2)cc1O` , reported fold change: 0.681

get_value(item= `CCC(=O)c1ccc2c(c1)N(CCCN(C)C)c1ccccc1S2` , readout=fold change) returns 0.831

Data point: `COc1ccc(C(C)=O)c(O)c1` ; fold change = 0.777

Short answer for CCN1C(=O)NC(c2ccccc2)C1=O (centres undefined) : fold change was 1.11

// `O=c1cc(O)c(Cl)c[nH]1` : fold change value = 1.21

Quick note, fold change for `O=c1[nH]c(=O)c2ccccc2o1` landed at 0.838

Query `CCCNC(C)(C)COC(=O)c1ccccc1` yields fold change of 0.64

fold change for COc1cc(C2c3cc4c(cc3C(OC3OC5COC(C)OC5C(O)C3O)C3COC(=O)C23)OCO4)cc(OC)c1O (centres undefined) is 1.95

---

assay: sensitizers of A549 cells to miR-34 induction, primary screen, imaging, A549 dox-inducible miR-34, nuclei and caspase counts (AID 1347080); conditions: A549 miR-34 inducible, Hoechst nuclei count, 48 h; measured here: relative caspase fold change +Dox/-Dox
Rule for this label: Yes means fold change is less than 1; No means fold change is at least 1.

Problem: For the compound `COc1ccc(-c2cc(=O)c3c(O)cc(O)cc3o2)cc1O` , is fold change under 1? Yes

Lab note: fold change threshold 1. Does this compound come in strictly under it? `C1CCN2C[C@@H]3C[C@H](CN4CCCC[C@@H]34)[C@H]2C1` No

Is it true that fold change reported for `N[C@@H](CC(=O)O)C(=O)O` is less than 1? No

Threshold test, fold change < 1: `O=C(NOCC1CC1)c1ccc(F)c(F)c1Nc1ccc(I)cc1Cl` Yes

Strictly below 1: is that where fold change of `CCCCC[C@@H](O)[C@H]1C(=O)O[C@H](C)[C@@H](O)/C=C/C=C/C=C/C=C/C=C(\C)[C@@H](O)C[C@H](O)C[C@H](O)C[C@H](O)C[C@H](O)C[C@H](O)C[C@@H]1O` sits? No

For `CC[N+](CC)(CCNC(=O)C(=O)NCC[N+](CC)(CC)Cc1ccccc1Cl)Cc1ccccc1Cl` , is the recorded fold change below the cut-off of 1? No

Bench note: check whether `Cc1ncc(C[n+]2csc(CCO)c2C)c(N)n1` shows fold change below 1 No

Please indicate whether the reported fold change of `CCCCCCCCCCCCCCCC[N+](C)(C)CCN(Cc1ccc(OC)cc1)c1ncccn1` is strictly below 1. No

Input `CO/N=C(\C(=O)N[C@@H]1C(=O)N2C(C(=O)O)=C(COC(N)=O)CS[C@H]12)c1ccco1` ; condition: fold change strictly below 1. Does it hold? No

hey, is fold change for `S=C=Nc1ccc(N=C=S)cc1` lower than 1 or not? No

---

experiment: survival rescue of mitochondrial mutant cells in low glucose, primary screen, MELAS cybrids, Rieske KO mouse fibroblasts, CellTiter-Glo (AID 1508586); settings: Rieske KO mouse fibroblast survival, CellTiter-Glo 72 h;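 note: z relative to plate mean and SD of compound and empty wells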
parameter: z-score
Reply with the value as a number alone.

Query C=CC1=C(C(=O)O)N2C(=O)[C@@H](NC(=O)/C(=N\O)c3csc(N)n3)[C@H]2SC1 (stereo in doubt) yields z-score of -0.423

z-score reading for `O=C1CN(/N=C/c2ccc([N+](=O)[O-])o2)C(=O)N1` : -2.1

z-score in this record for `CCCCC(=O)O[C@H]1CC[C@H]2[C@@H]3CCc4cc(O)ccc4[C@H]3CC[C@]12C` : -0.171

In plain terms, `CC(C)c1c(C(=O)Nc2ccccc2)c(-c2ccccc2)c(-c2ccc(F)cc2)n1CC[C@@H](O)C[C@@H](O)CC(=O)O` has a documented z-score of -0.779

The value of z-score measured for the molecule `O=C(O)c1cccc(-c2noc(-c3ccccc3F)n2)c1` turned out to be 0.633

`C=C[C@H]1CN2CC[C@H]1C[C@@H]2[C@@H](O)c1ccnc2ccc(OC)cc12` has a reported z-score of 0.401

The molecule identified as `Cc1cc2c(cc1CC(=O)c1sccc1S(=O)(=O)Nc1onc(C)c1Cl)OCO2` registered its z-score at -0.0127

z-score in this record for `OCCN1CCN(CCCN2c3ccccc3C=Cc3ccccc32)CC1` : -0.132

Please fill in: z-score reported for `CCCNC(C)(C)COC(=O)c1ccccc1` = -0.0308

Field z-score (entry `C[C@H](CCC(=O)O)[C@H]1CC[C@H]2[C@@H]3CC[C@@H]4C[C@H](O)CC[C@]4(C)[C@H]3CC[C@]12C` ) reads -0.0326

Lab note: measured z-score of `NCCc1ccn[nH]1` was 0.115

Record COC(=O)C1=C(C)NC(C)=C(C(=O)OCCCN2CCC(c3ccccc3)(c3ccccc3)CC2)C1c1cccc([N+](=O)[O-])c1 (stereo not given) . Reported z-score: -0.158

# z-score (molecule: `C#CCN(C)CCCOc1ccc(Cl)cc1Cl` ) is 0.294

The molecule identified as `CC(C=CC=C(C)C=CC1=C(C)CCCC1(C)C)=CC=CC=C(C)C=CC=C(C)C=CC1=C(C)CCCC1(C)C` registered its z-score at 0.553

// z-score value for `CC1(C)S[C@@H]2[C@H](NC(=O)[C@H](N)c3ccc(O)cc3)C(=O)N2[C@H]1C(=O)O` : 0.115

Note to self: z-score recorded for `O=C(Oc1ccccc1C(=O)O)c1ccccc1O` was -0.293

# molecule `NS(=O)(=O)c1cc(C(=O)O)cc(N2CCCC2)c1Oc1ccccc1` ; its z-score = -0.69

Summary for this molecule, `CC(=O)[C@H]1CC[C@H]2[C@@H]3C=CC4=CC(=O)CC[C@@]4(C)[C@@H]3CC[C@]12C` : z-score is 0.105

The reported z-score of the molecule `O=C(O)c1ccc(-n2nc(-c3ccccc3O)nc2-c2ccccc2O)cc1` was -0.754

The measured z-score associated with `CCOc1ccccc1OCCN[C@H](C)Cc1ccc(OC)c(S(N)(=O)=O)c1` reads -1.24

---

Would you mind telling me the reported luciferase signal of each entry?
target: Mitogen-activated protein kinase 7 (Homo sapiens) (UniProt Q13164); assay: ERK5 transactivation activators in reporter cells, primary screen, cell-based, HTS (AID 1508626); settings: HeLa Gal4-ERK5 transactivation, 18 h, at 5 µM, stronger effect = higher value;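 note: luciferase driven by Gal4-ERK5 fusion binding five Gal4 sites before minimal TATA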
Sequence (Q13164 whole entry, looked up, the tested form may be a part): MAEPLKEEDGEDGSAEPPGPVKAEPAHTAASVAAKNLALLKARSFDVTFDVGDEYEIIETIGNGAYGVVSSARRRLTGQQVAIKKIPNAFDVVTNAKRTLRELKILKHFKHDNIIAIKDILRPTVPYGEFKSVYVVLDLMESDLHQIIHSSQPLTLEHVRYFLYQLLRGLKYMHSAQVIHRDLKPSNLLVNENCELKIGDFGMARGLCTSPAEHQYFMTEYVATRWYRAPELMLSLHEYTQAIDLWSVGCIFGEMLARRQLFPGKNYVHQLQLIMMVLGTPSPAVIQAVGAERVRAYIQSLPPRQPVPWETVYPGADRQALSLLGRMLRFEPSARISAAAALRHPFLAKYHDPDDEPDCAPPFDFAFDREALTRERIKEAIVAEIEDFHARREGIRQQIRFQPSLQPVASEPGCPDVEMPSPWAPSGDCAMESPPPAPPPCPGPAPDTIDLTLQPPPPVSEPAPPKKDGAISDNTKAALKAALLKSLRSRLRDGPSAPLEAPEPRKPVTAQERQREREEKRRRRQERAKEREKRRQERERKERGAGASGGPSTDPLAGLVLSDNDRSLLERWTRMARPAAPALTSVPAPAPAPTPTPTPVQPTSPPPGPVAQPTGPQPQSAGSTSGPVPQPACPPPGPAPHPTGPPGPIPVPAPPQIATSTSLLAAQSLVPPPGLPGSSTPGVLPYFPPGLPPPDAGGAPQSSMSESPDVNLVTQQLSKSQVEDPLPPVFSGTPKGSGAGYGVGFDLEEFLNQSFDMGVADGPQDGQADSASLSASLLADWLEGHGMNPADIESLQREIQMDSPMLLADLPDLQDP
Active and inactive are the calls of the source.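 Rule for the calls: active = luciferase signal above three times the same-plate solvent-only control wells; inactive = the rest.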

// `O=C(O[C@@H]1Cc2c(O)cc(O)cc2O[C@@H]1c1ccc(O)c(O)c1)c1cc(O)c(O)c(O)c1` : luciferase signal value = 52 AU (inactive)

Briefly, luciferase signal measured for `C1CCc2nnnn2CC1` : 96 AU (inactive)

For reference, reported luciferase signal for `C[n+]1c2cc(N)ccc2cc2ccc(N)cc21` stands at 24 AU (inactive)

Sample `C[C@H]1[C@H]2CC[C@H]3[C@@H]4CC=C5C[C@@H](N(C)C)CC[C@]5(C)[C@H]4CC[C@]23CN1C` ; luciferase signal observed: 40 AU (inactive)

luciferase signal in this record for `CCOC(=O)CCC(=O)O[C@H]1[C@H](O[C@@H]2[C@@H](C)[C@H](O[C@H]3C[C@@](C)(OC)[C@@H](O)[C@H](C)O3)[C@@H](C)C(=O)O[C@H](CC)[C@@](C)(O)[C@H](O)[C@@H](C)C(=O)[C@H](C)C[C@@]2(C)O)O[C@H](C)C[C@@H]1N(C)C` : 208 AU (inactive)

In plain terms, `NC[C@H]1O[C@H](O[C@H]2[C@H](O[C@@H]3O[C@H](CO)[C@@H](O)[C@H]3O)[C@@H](O)[C@H](N)C[C@@H]2N)[C@H](N)[C@@H](O)[C@@H]1O` has a documented luciferase signal of 40 AU (inactive)

Form: compound = CC1C2[C@]3(CC[C@H]1C)CCC1(C)[C@@]2(C=CC2[C@@]4(C)CC[C@H](O)C(C)(C)C4CC[C@]21C)OC3=O (some centres undefined) ; luciferase signal = 56 AU (inactive)

Lab note: measured luciferase signal of `COc1cc(C(=O)N2CCOCC2)cc(OC)c1OC` was 48 AU (inactive)

// recorded luciferase signal for `COc1cc(O)cc(OC)c1OC` : 20 AU (inactive)

Documented luciferase signal of `C[C@]12CC[C@@H]3c4ccc(O)cc4CC[C@H]3[C@@H]1CC[C@@H]2OC(=O)CCC1CCCC1` : 84 AU (inactive)

Form field luciferase signal, entry `CC(=O)Oc1c(-c2ccccc2)oc2c(CC=C(C)C)c3c(c(OC(C)=O)c2c1=O)C=CC(C)(C)O3` : 40 AU (inactive)

Quick note, luciferase signal for `C[N+](C)(C)CCCCCCCCCC[N+](C)(C)C` landed at 60 AU (inactive)

Entry `COc1c(C)c2c(c(O)c1C/C=C(\C)CCC(=O)O)C(=O)OC2` , luciferase signal reported as 48 AU (inactive)

// luciferase signal value for `COc1c(OC)c2occc2c2oc(=O)ccc12` : 28 AU (inactive)

Query `O=C(O)c1nc2cc(Cl)c(Cl)cc2[nH]c1=O` yields luciferase signal of 36 AU (inactive)

Please fill in: luciferase signal reported for `COc1cc(OC)c2c(=O)c(-c3ccc4c(c3)OCO4)coc2c1` = 92 AU (inactive)

In plain terms, C#CCCCCCCCCCCCC(O)CC(O)COC(C)=O (centres undefined) has a documented luciferase signal of 60 AU (inactive)

Measured luciferase signal of `CC(=O)N[C@@H](CC(C)C)C(=O)O` : 56 AU (inactive)

The compound listed as CC(=O)O[C@@H]1CC2C(C)(C)[C@H](O)CC[C@]2(C)C2CC[C@@]3(C)[C@H](c4ccoc4)OC(=O)C4OC43[C@@]21C (some centres undefined) shows luciferase signal equal to 36 AU (inactive)
